Target: LFA-1 (CD18/CD11a) binding to ICAM-1 (Homo sapiens, UniProt P05107+P20701)
Construct: LFA-1 is immunopurified using the TS2/4 antibody from a 20 g pellet of human JY or SKW3 cells; endogenous in cells; sICAM-1 made in house, secreted from transfected CHO DUX cells
Sequence (P20701 26-1170): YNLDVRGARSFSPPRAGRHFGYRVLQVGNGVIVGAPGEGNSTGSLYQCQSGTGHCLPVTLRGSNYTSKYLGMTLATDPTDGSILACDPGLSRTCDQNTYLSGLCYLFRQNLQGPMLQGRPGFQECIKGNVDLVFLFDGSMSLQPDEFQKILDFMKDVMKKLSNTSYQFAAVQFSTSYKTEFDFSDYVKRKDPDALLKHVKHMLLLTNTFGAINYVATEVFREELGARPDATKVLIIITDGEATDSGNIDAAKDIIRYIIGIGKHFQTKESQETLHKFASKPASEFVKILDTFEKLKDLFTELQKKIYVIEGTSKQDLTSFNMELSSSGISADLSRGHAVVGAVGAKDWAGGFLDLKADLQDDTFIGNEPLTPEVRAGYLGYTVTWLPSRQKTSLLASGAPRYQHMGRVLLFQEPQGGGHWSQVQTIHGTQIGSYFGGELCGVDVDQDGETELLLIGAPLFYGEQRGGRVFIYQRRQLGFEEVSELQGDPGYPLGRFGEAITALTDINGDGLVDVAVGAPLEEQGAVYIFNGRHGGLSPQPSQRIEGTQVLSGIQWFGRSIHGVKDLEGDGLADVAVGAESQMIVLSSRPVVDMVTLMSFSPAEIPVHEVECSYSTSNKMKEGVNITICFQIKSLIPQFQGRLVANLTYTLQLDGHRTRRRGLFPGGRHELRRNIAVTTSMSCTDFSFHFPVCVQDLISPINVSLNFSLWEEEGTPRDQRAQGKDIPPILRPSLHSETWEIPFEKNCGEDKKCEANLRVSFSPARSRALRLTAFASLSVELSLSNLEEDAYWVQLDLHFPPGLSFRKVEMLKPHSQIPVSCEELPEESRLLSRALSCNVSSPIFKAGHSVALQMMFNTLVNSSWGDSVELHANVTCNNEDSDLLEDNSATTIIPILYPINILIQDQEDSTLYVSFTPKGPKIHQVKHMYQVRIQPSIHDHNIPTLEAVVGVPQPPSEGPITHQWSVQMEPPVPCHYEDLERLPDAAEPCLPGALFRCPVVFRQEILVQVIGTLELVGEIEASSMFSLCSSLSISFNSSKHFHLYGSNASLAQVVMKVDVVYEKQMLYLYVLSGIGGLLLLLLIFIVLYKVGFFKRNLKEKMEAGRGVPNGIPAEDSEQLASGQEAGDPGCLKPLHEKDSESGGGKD
Sequence (P05107 23-769): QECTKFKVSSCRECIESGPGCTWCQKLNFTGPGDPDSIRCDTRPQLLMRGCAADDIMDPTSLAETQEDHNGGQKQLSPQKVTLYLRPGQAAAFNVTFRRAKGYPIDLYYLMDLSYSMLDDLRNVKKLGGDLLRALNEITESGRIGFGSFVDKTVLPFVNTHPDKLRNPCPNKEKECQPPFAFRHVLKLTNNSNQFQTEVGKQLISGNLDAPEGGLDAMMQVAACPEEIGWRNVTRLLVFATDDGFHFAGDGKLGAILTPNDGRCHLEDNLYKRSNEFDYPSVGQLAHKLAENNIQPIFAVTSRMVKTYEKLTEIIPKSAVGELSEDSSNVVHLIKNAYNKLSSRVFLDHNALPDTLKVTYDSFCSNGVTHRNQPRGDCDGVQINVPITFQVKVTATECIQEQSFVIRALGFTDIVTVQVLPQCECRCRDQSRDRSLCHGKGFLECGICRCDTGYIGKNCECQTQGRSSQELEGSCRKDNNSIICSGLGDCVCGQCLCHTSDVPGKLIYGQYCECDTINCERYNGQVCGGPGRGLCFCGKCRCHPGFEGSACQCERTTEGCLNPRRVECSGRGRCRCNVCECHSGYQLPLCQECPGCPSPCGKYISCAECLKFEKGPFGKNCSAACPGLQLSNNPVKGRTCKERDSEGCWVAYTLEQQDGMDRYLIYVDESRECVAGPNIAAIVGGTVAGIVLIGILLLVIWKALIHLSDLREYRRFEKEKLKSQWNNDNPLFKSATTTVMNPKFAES
Assay: Assay to determine inhibition of LFA-1 binding to ICAM-1
Details: immunopurified LFA-1 binding to plate-bound sICAM-1; read-out: LFA/ICAM1 Kd
Endpoint name: log10(Kd) (log10 of the value in nM)
The base-10 logarithm of Kd, taken with Kd in nM, is what appears here.

Some entries whose results are on file:
CC(=O)NC1CCCN(C(=O)C2(NC(=O)c3cnc4n3[C@](C)(Cc3ccc(C#N)cc3)C(=O)N4c3cc(Cl)cc(Cl)c3)CC2)C1 (stereo partly drawn); 1.53
C[C@@H](NC(=O)c1cnc2n1[C@](C)(Cc1ccc(C#N)cc1)C(=O)N2c1cc(Cl)cc(Cl)c1)C(=O)Nc1nccs1; 2.00
C[C@H](NC(=O)c1cnc2n1[C@](C)(Cc1ccc(C#N)cc1)C(=O)N2c1cc(Cl)cc(Cl)c1)C(=O)N1CCC[C@@H](C(N)=O)C1; 0.38

Look up log10(Kd) for this molecule: C[C@@]1(Cc2ccc(C#N)cc2)C(=O)N(c2cc(Cl)c(F)c(Cl)c2)c2ncc(C(=O)NC3(C(=O)NC4(c5nnc[nH]5)CC4)CC3)n21
0.85

Next molecule up: CCN(C(C)=O)C1CCN(C(=O)C2(NC(=O)c3cnc4n3[C@](C)(Cc3ccc(OC(F)(F)F)cc3)C(=O)N4c3cc(Cl)cc(Cl)c3)CC2)C1 (stereo partly drawn)
1.34

Next molecule up: C[C@@]1(Cc2ccc(C#N)cc2)C(=O)N(c2cc(Cl)cc(Cl)c2)c2ncc(C(=O)NC3(C(=O)NC4(C(N)=O)CC4)CC3)n21
0.92

Next molecule up: C[C@@]1(Cc2ccc(C#N)cc2)C(=O)N(c2cc(Cl)cc(Cl)c2)c2ncc(C(=O)NC3(C(=O)N[C@@H]4CC[C@H](C(N)=O)C4)CC3)n21
1.38

Next molecule up: C[C@@]1(Cc2ccc(C#N)cc2)C(=O)N(c2cc(Cl)cc(Cl)c2)c2ncc(C(=O)NC3(C(=O)N4CC[C@@H](O)C4)CC3)n21
0.77

Next molecule up: C[C@H](NC(=O)c1cnc2n1[C@](C)(Cc1ccc(C#N)cc1)C(=O)N2c1cc(Cl)cc(Cl)c1)C(=O)N[C@H](C)c1ccccn1
0.95

Next molecule up: C[C@@H](NC(=O)c1cnc2n1[C@](C)(Cc1ccc(C#N)cc1)C(=O)N2c1cc(Cl)cc(Cl)c1)C(=O)NC1(C(=O)O)CC1
1.45

Next molecule up: C[C@@]1(Cc2ccc(C#N)cc2)C(=O)N(c2cc(Cl)cc(Cl)c2)c2ncc(C(=O)NC3(C(=O)N4CC[C@@H](c5noc(=O)[nH]5)C4)CC3)n21
0.66

Next molecule up: CC(=O)N1CCC(NC(=O)C2(NC(=O)c3cnc4n3[C@](C)(Cc3ccc(C#N)cc3)C(=O)N4c3cc(Cl)cc(Cl)c3)CC2)CC1
1.85

Next molecule up: CC(=O)N[C@H]1CCN(C(=O)C2(NC(=O)c3cnc4n3[C@](C)(Cc3ccc(C#N)cc3)C(=O)N4c3cc(Cl)cc(Cl)c3)CC2)C1
0.73
